System: ragweed (common ragweed, Ambrosia elatior)
test_description: Test A postemergence, ragweed
Assay type: in vivo
condition_description: 125 g ai/ha, 0 to 100 scale
Kindly supply the reported Plant response rating, Ragweed values for the records listed here.
Please reply with the value in numeric form only.

# Plant response rating, Ragweed (molecule: C[C@@H](Nc1ncc(C(F)(F)F)c(N)n1)c1cc2cc(F)ccc2o1 ) is 60

# Plant response rating, Ragweed (molecule: CC(Nc1ncc(C(F)(F)F)c(N)n1)C1Cc2ccccc2C1 (racemic) ) is 20

# Plant response rating, Ragweed (molecule: Cc1cc(OCC(C)Nc2ncc(C(F)(F)F)c(N)n2)ccc1F (stereo not drawn) ) is 0

# Plant response rating, Ragweed (molecule: Cc1cc(F)cc(OCC(C)Nc2ncc(C(F)(F)F)c(N)n2)c1 (stereo not drawn) ) is 0

# Plant response rating, Ragweed (molecule: C[C@@H](Nc1ncc(C(F)(F)F)c(N)n1)c1cc2cc(F)c(F)cc2o1 ) is 20

# Plant response rating, Ragweed (molecule: C[C@@H](Nc1ncc(C(F)(F)F)c(N)n1)c1cc2ccc(C(F)(F)F)cc2o1 ) is 20

# Plant response rating, Ragweed (molecule: Cc1ccc2oc([C@@H](C)Nc3ncc(C(F)(F)F)c(N)n3)cc2c1 ) is 20

# Plant response rating, Ragweed (molecule: CC(COc1cccc(F)c1)Nc1ncc(C(F)(F)F)c(N)n1 (stereo not drawn) ) is 0

# Plant response rating, Ragweed (molecule: CCC(Nc1ncc(C(F)(F)F)c(N)n1)c1cc2ccccc2o1 (racemic) ) is 20

###

Tested on: barnyardgrass (Echinochloa crus-galli)
test_description: Test A postemergence, barnyardgrass
Format: in vivo
condition_description: 125 g ai/ha, 0 to 100 scale
assay_readout: Plant response rating, Barnyardgrass
Please reply with the value in numeric form only.

# Plant response rating, Barnyardgrass (compound: C[C@@H](Nc1ncc(C(F)(F)F)c(N)n1)c1cc2cc(F)c(F)cc2o1 ) is 0

# Plant response rating, Barnyardgrass (compound: CC(Nc1ncc(C(F)(F)F)c(N)n1)C1Cc2ccccc2C1 (racemic) ) is 10

# Plant response rating, Barnyardgrass (compound: C[C@H](Nc1ncc(C(F)(F)F)c(N)n1)C1Cc2ccccc2C1 ) is 0

# Plant response rating, Barnyardgrass (compound: CC(Nc1ncc(C(F)(F)F)c(N)n1)c1cc2ccccc2s1 (racemic) ) is 30

# Plant response rating, Barnyardgrass (compound: Cc1cc2cc([C@@H](C)Nc3ncc(C(F)(F)F)c(N)n3)oc2cc1C ) is 20

# Plant response rating, Barnyardgrass (compound: C[C@@H](Nc1ncc(C(F)(F)F)c(N)n1)c1cc2cc(F)ccc2o1 ) is 10

# Plant response rating, Barnyardgrass (compound: CC(Nc1ncc(C(F)(F)F)c(N)n1)c1csc2ccccc12 (stereo not drawn) ) is 0

# Plant response rating, Barnyardgrass (compound: C[C@@H](Nc1ncc(C(F)(F)F)c(N)n1)c1cc2ccc(Cl)cc2o1 ) is 20

# Plant response rating, Barnyardgrass (compound: CCC(Nc1ncc(C(F)(F)F)c(N)n1)c1cc2ccccc2o1 (racemic) ) is 0

###

Tested on: pigweed (Amaranthus retroflexus)
test_description: Test A postemergence, pigweed
Format: in vivo
condition_description: 500 g ai/ha, 0 to 100 scale
Kindly supply the reported Plant response rating, Pigweed values for the records listed here.
Please reply with the value in numeric form only.

# Plant response rating, Pigweed (molecule: CC(COc1cc(F)cc(F)c1)Nc1ncc(C(F)(F)F)c(N)n1 (stereo not drawn) ) is 30

# Plant response rating, Pigweed (molecule: CC[C@H](COc1cc(C)cc(C)c1)Nc1ncc(C(F)(F)F)c(N)n1 ) is 90

# Plant response rating, Pigweed (molecule: Cc1ccc2oc([C@@H](C)Nc3ncc(C(F)(F)F)c(N)n3)cc2c1 ) is 90

# Plant response rating, Pigweed (molecule: CC(COc1cc(Cl)cc(Cl)c1)Nc1ncc(C(F)(F)F)c(N)n1 (stereo not drawn) ) is 50

# Plant response rating, Pigweed (molecule: Nc1nc(NC(c2cc3ccccc3o2)C2CC2)ncc1C(F)(F)F (racemic) ) is 100

# Plant response rating, Pigweed (molecule: Cc1cc(OCC(C)Nc2ncc(C(F)(F)F)c(N)n2)ccc1F (stereo not drawn) ) is 80

# Plant response rating, Pigweed (molecule: CC(Nc1ncc(C(F)(F)F)c(N)n1)c1csc2ccccc12 (stereo not drawn) ) is 100

# Plant response rating, Pigweed (molecule: CC(COc1cccc(C(F)(F)F)c1)Nc1ncc(C(F)(F)F)c(N)n1 (stereo not drawn) ) is 60

# Plant response rating, Pigweed (molecule: C[C@@H](Nc1ncc(C(F)(F)F)c(N)n1)c1cc2ccc(C(F)(F)F)cc2o1 ) is 90

###

Kindly supply the reported Plant response rating, Galium values for the records listed here.
System: galium (catchweed bedstraw, Galium aparine)
test_description: Test A postemergence, galium
Assay type: in vivo
condition_description: 31 g ai/ha, 0 to 100 scale, 0 no effect, 100 complete control
Please reply with the value in numeric form only.

Measured on galium (catchweed bedstraw, Galium aparine), C[C@@H](Nc1nc(N)c(C(F)(F)F)c(C(F)F)n1)c1cc2ccccc2o1 [Compound 111] has a documented Plant response rating, Galium of 20

Measured on galium (catchweed bedstraw, Galium aparine), C[C@@H](Nc1ncc(C(F)(F)F)c(N)n1)c1cc2c(Cl)cccc2s1 [Compound 116] has a documented Plant response rating, Galium of 60

Measured on galium (catchweed bedstraw, Galium aparine), CC(F)c1nc(N[C@H](C)c2cc3ccccc3s2)nc(N)c1C(F)(F)F (stereo partly drawn) [Compound 108] has a documented Plant response rating, Galium of 50

Measured on galium (catchweed bedstraw, Galium aparine), CC(F)c1nc(N[C@H](C)c2cc3ccccc3o2)nc(N)c1C(F)(F)F (stereo partly drawn) [Compound 112] has a documented Plant response rating, Galium of 20

Measured on galium (catchweed bedstraw, Galium aparine), C[C@@H](Nc1ncc(C(F)(F)F)c(N)n1)c1cc2ccccc2[s+]1[O-] (stereo partly drawn) [Compound 113] has a documented Plant response rating, Galium of 40

Measured on galium (catchweed bedstraw, Galium aparine), C[C@@H](Nc1ncc([S+](C)[O-])c(N)n1)c1cc2ccccc2s1 (stereo partly drawn) [Compound 110] has a documented Plant response rating, Galium of 30

Measured on galium (catchweed bedstraw, Galium aparine), C[C@@H](Nc1nc(N)c(C(F)(F)F)c(C(F)F)n1)c1cc2ccccc2s1 [Compound 109] has a documented Plant response rating, Galium of 40

Measured on galium (catchweed bedstraw, Galium aparine), C[C@@H](Nc1ncc(C(F)(F)F)c(N)n1)c1cc2c(F)ccc(F)c2s1 [Compound 114] has a documented Plant response rating, Galium of 60

Measured on galium (catchweed bedstraw, Galium aparine), Cc1cccc2sc([C@@H](C)Nc3ncc(C(F)(F)F)c(N)n3)cc12 [Compound 115] has a documented Plant response rating, Galium of 50

###

Kindly supply the reported Ryegrass, Italian plant response rating values for the records listed here.
System: ryegrass, Italian (Lolium multiflorum)
test_description: Test A preemergence, Italian ryegrass
Type: in vivo
condition_description: 125 g ai/ha, 0 to 100 scale, 0 is no effect, 100 is complete control
Please reply with the value in numeric form only.

# Ryegrass, Italian plant response rating (molecule: C[C@@H](Nc1ncc(C(F)(F)F)c(N)n1)c1cc2ccccc2[s+]1[O-] (stereo partly drawn) [Compound 113] ) is 30

# Ryegrass, Italian plant response rating (molecule: C[C@@H](Nc1nc(N)c(C(F)(F)F)c(C(F)F)n1)c1cc2ccccc2s1 [Compound 109] ) is 40

# Ryegrass, Italian plant response rating (molecule: C[C@@H](Nc1nc(N)c(C(F)(F)F)c(C(F)(F)F)n1)C1Cc2ccccc2C1 [Compound 67] ) is 0

# Ryegrass, Italian plant response rating (molecule: CC(COc1cc(Cl)cc(Cl)c1)Nc1ncc(C(F)(F)F)c(N)n1 (stereo not drawn) [Compound 35] ) is 0

# Ryegrass, Italian plant response rating (molecule: CC(Nc1ncc(C(F)(F)F)c(N)n1)c1csc2ccccc12 (stereo not drawn) [Compound 40] ) is 20

# Ryegrass, Italian plant response rating (molecule: C[C@@H](Nc1ncc(C(F)(F)F)c(N)n1)c1cc2cccc(F)c2o1 [Compound 71] ) is 20

# Ryegrass, Italian plant response rating (molecule: CC(Nc1nc(N)c(C(F)(F)F)c(C(F)(F)F)n1)c1cc2ccccc2o1 (racemic) [Compound 58] ) is 0

# Ryegrass, Italian plant response rating (molecule: CC[C@@H](Nc1ncc(C(F)(F)F)c(N)n1)c1coc2ccccc12 [Compound 80] ) is 70

# Ryegrass, Italian plant response rating (molecule: Nc1nc(NC(c2cc3ccccc3o2)C2CC2)ncc1C(F)(F)F (stereo not drawn) [Compound 89] ) is 0

# Ryegrass, Italian plant response rating (molecule: Cc1cc(F)cc(OCC(C)Nc2ncc(C(F)(F)F)c(N)n2)c1 (stereo not drawn) [Compound 39] ) is 0

# Ryegrass, Italian plant response rating (molecule: CC(Nc1ncc(C(F)(F)F)c(N)n1)c1coc2cc(F)ccc12 (racemic) [Compound 51] ) is 60

# Ryegrass, Italian plant response rating (molecule: CC(COc1cc(F)c(F)c(F)c1)Nc1ncc(C(F)(F)F)c(N)n1 (stereo not drawn) [Compound 36] ) is 0

# Ryegrass, Italian plant response rating (molecule: Nc1nc(NC(c2cc3ccccc3o2)C2CC2)ncc1C(F)(F)F (stereo not drawn) [Compound 88] ) is 50

# Ryegrass, Italian plant response rating (molecule: CC[C@H](Nc1ncc(C(F)(F)F)c(N)n1)c1cc2ccc(F)cc2o1 [Compound 64] ) is 0

# Ryegrass, Italian plant response rating (molecule: C[C@@H](Nc1ncc(C(F)(F)F)c(N)n1)c1cc2c(F)cccc2o1 [Compound 73] ) is 100

# Ryegrass, Italian plant response rating (molecule: Cc1nc(NC(C)c2coc3ccccc23)nc(N)c1C(F)(F)F (stereo not drawn) [Compound 106] ) is 0

# Ryegrass, Italian plant response rating (molecule: C[C@H](Nc1nc(N)c(C(F)(F)F)c(C(F)(F)F)n1)c1cc2ccccc2s1 [Compound 60] ) is 0

# Ryegrass, Italian plant response rating (molecule: Nc1nc(NC(c2coc3ccccc23)C2CC2)ncc1C(F)(F)F (racemic) [Compound 95] ) is 40
